# Tested on: EPHA8;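 also: KINOMEscan kinase panel screen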
# measurement conditions: concentration: 1 μM, replicates: in singlicate; n = 1
endpoint name: %Inh (%)
Answer in %, number only, no unit symbol.

Look over these answered cases.
compound	%Inh / %
CCS(=O)(=O)c1ccc(OC)c(Nc2ncc(-c3ccc(F)cc3)o2)c1.Cl [GW591947]	1
CCC(=O)c1c(-c2ccccc2)c2cc(Cl)ccc2c(=O)n1Cc1cc(S(C)(=O)=O)n(CC(N)=O)n1	0
COc1cc2ncn(-c3cc(OCCCc4ccccc4)c(C(N)=O)s3)c2cc1OC [GSK205189]	17
Cc1ccc(-c2ccc3c(ccc4sc5c(c43)NC[C@@H](C)N=C5N(C)C)n2)cn1	0
CCCC(=O)Nc1n[nH]c2ncc(-c3cccc4ccccc34)cc12 [SB-642057]	1
Nc1nc(-c2ccccc2F)c(-c2ccnc3ccccc23)s1 [GW560459]	0
CCn1c(-c2nonc2N)nc2ccccc21 [SB-693162/GW549034]	0
Nc1ncnc2c1ncn2-c1ccc(Cl)cc1 [AH2635]	3

Recorded %Inh of O=C1NC(=O)C(c2ccccc2)=C1Nc1cccc(O)c1 [SB-390534] , please.
0

The measurements presented in this section are drawn from paper PMC5540273.
